study target: DUSP1 enzyme (activation domain, amino acid residues 166-316) (Homo sapiens, UniProt P28562)
Construct: made in house; host or cells: E. coli BL21
Sequence (P28562 166-316): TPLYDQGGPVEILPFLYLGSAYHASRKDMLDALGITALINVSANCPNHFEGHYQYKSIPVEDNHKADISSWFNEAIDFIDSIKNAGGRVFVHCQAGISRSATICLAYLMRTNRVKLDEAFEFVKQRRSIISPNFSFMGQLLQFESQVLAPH
test: DUSP1 activity inhibitory potency, fluorescence enzyme assay with DiFMUP substrate
Format: biochemical
assay context: 50 nM DUSP1 activation domain, 10 μM DiFMUP, 5% DMSO
measured metric: pIC50
One number for each entry, as −log10 of the molar value.

These solved cases illustrate the format of a correct answer.
CC(=O)c1c(Nc2ccc(Cl)cc2Cl)[nH]c2c(Cl)ccc(F)c2c1=O :: 5.12
O=C(c1c(Nc2cc(Cl)cc(Cl)c2)[nH]c2c(Cl)ccc([N+](=O)[O-])c2c1=O)C1CC1 :: 5.39
CC(C)C(=O)c1c(Nc2cc(Cl)cc(Cl)c2)[nH]c2c(Cl)ccc([N+](=O)[O-])c2c1=O :: 5.29
CC(C)CC(=O)c1c(Nc2cccc(Cl)c2Cl)[nH]c2c(Cl)ccc([N+](=O)[O-])c2c1=O :: 5.32

// each compound listed below needs its pIC50
1. CC(=O)c1c(Nc2ccc(Br)cc2Br)[nH]c2c(Cl)ccc(F)c2c1=O
2. CC(C)CC(=O)c1c(Nc2cc(Cl)cc(Cl)c2)[nH]c2c(Cl)ccc([N+](=O)[O-])c2c1=O
3. CC(=O)c1c(Nc2cc(C(F)(F)F)cc(C(F)(F)F)c2)[nH]c2c(Cl)ccc(F)c2c1=O

// result
1: 5.21; 2: 5.46; 3: 5.38

Data origin, for the record: patent US11147807B2
